Biological target: wild-type p300 HAT (Homo sapiens, UniProt Q09472, DEL1523-1554/M1652G)
Construct: linking the natural N- and C-termini (residues 1287 and 1666) of the HAT domain; made in house
Sequence (Q09472 with tags, fused parts or gaps DEL1523-1554/M1652G): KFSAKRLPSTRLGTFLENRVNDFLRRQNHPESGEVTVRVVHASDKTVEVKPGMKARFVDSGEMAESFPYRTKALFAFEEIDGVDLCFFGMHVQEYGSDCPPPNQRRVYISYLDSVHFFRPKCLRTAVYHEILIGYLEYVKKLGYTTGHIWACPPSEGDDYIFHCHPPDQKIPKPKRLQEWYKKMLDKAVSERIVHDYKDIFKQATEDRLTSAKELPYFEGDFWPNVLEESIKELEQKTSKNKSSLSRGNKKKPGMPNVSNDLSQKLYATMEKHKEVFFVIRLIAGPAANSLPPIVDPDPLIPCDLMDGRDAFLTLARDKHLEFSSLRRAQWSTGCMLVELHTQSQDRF
Experiment: HAT assay, steady state kinetic parameters of H4 tail peptide analog substrates, wild-type p300 HAT
Format: biochemical
Conditions: peptide as substrate of wild-type p300 HAT
Non-standard residues stand in square brackets, D forms with d. No end group written: not given here. Cit = NC(=O)NCCC[C@H](N)C(=O)O
endpoint_name: V/K(M^−1s^−1) for W.T.
Put down the number, then write its unit next to it.

// query Return reported V/K(M^−1s^−1) for W.T. for target or system wild-type p300 HAT (Homo sapiens, UniProt Q09472, DEL1523-1554/M1652G), item RGXGGKGLGAGA (RG[Cit]GGKGLGAGA) [H4-12(K5X/K12A)] .
// result 5247 ± 60 M⁻¹ s⁻¹

// query Return reported V/K(M^−1s^−1) for W.T. for target or system wild-type p300 HAT (Homo sapiens, UniProt Q09472, DEL1523-1554/M1652G), item GRGDGGKGLGDGGAK [H4-15(K5D/K12D)] .
// result 636 ± 0 M⁻¹ s⁻¹

// query Return reported V/K(M^−1s^−1) for W.T. for target or system wild-type p300 HAT (Homo sapiens, UniProt Q09472, DEL1523-1554/M1652G), item RGAGGKGLGAGA [H4-12(K5A/K12A)] .
// result 3824 ± 180 M⁻¹ s⁻¹

// query Return reported V/K(M^−1s^−1) for W.T. for target or system wild-type p300 HAT (Homo sapiens, UniProt Q09472, DEL1523-1554/M1652G), item GRGKGGKGLGKGGAK (Ac-GRGKGGKGLGKGGAK) [Compound H4-15] .
// result 25000 ± 1643 M⁻¹ s⁻¹
